tested on: 7G8; assay: qHTS profiling for inhibitors of Plasmodium falciparum proliferation (AID 504749); note: nearly all actives have a fitted effect of over 60% in size; conditions: P. falciparum in erythrocytes, SYBR Green DNA, 72 h; series mostly up to 28.7 µM
Results filed as inconclusive are left out. Activity calls are given as the source filed them. Calls come from the whole dose curve; as a rule, active = well fitted inhibition curve with a large enough effect; inconclusive = small, poorly fitted or top-dose-only effect; inactive = flat fitted curve, though single readings scatter.
Hi! Could you answer with just one of these? active, inactive

Would you mind telling me which call this test gave `CC1=C(C(=O)O)N2C(=O)[C@@H](NC(=O)[C@H](N)c3ccccc3)[C@H]2SC1` ?
inactive

Next entry: `Cc1cccc(C)c1NC(=O)c1ccccc1C(=O)O`
inactive

Next entry: `Cc1c[nH]c2ccccc12`
inactive

====

tested on: CP329; experiment: qHTS profiling for inhibitors of Plasmodium falciparum proliferation (AID 504749); note: nearly all actives have a fitted effect of over 60% in size; details: P. falciparum in erythrocytes, SYBR Green DNA, 72 h; series mostly up to 28.7 µM
Inconclusive results are not listed. Activity calls are given as the source filed them. Calls come from the whole dose curve; as a rule, active = well fitted inhibition curve with a large enough effect; inconclusive = small, poorly fitted or top-dose-only effect; inactive = flat fitted curve, though single readings scatter.
Hi! Could you answer with just one of these? active, inactive

Would you mind telling me which call this test gave CC1CCc2c(N3CCC(O)CC3)c(F)cc3c(=O)c(C(=O)O)cn1c23 (centres undefined) ?
inactive

Next entry: `CN1CCN(C2=Nc3ccccc3Sc3ccc(Cl)cc32)CC1`
inactive

Next entry: `O=C(c1ccc(F)cc1)C1CCN(CCn2c(=S)[nH]c3ccccc3c2=O)CC1`
active

Next entry: `Cc1cc(-c2ccccc2)nnc1NCCN1CCOCC1`
inactive

Next entry: O=C(O)C(Cc1cc(I)c(O)c(I)c1)c1ccccc1 (centres undefined)
inactive

Next entry: `COc1ccc(CN(CCN(C)C)c2ncccn2)cc1`
inactive

Next entry: `Nc1ccc(C(=O)NCC(=O)O)cc1`
inactive

Next entry: `c1ccc(CC2=NCCN2)cc1`
inactive

====

system: CP247; experiment: qHTS profiling for inhibitors of Plasmodium falciparum proliferation (AID 504749); note: nearly all actives have a fitted effect of over 60% in size; conditions: P. falciparum in erythrocytes, SYBR Green DNA, 72 h; series mostly up to 28.7 µM
Results filed as inconclusive are left out. Active and inactive are the calls of the source. Calls follow the shape of the dose curve; as a rule, active = well fitted inhibition curve with a large enough effect; inconclusive = small, poorly fitted or top-dose-only effect; inactive = flat fitted curve, though single readings scatter.
Hi! Could you answer with just one of these? active, inactive

O=C(Nc1cccc(C2=NCCN2)c1)Nc1cccc(C2=NCCN2)c1 ... active
NS(=O)(=O)Cc1noc2ccccc12 ... inactive
CCCCC(CC)COC(=O)c1ccc(N(C)C)cc1 (stereo not given) ... inactive

Would you mind telling me which call this test gave `C=C[C@@]1(C)CC(=O)[C@]2(O)[C@@]3(C)[C@@H](O)CCC(C)(C)[C@@H]3[C@H](O)[C@H](OC(C)=O)[C@@]2(C)O1` ?
inactive

Next entry: `CCCCNc1ccc(C(=O)OCCOCCOCCOCCOCCOCCOCCOCCOCCOC)cc1`
inactive

====

system: CP247; experiment: qHTS profiling for inhibitors of Plasmodium falciparum proliferation (AID 504749); note: nearly all actives have a fitted effect of over 60% in size; settings: P. falciparum in erythrocytes, SYBR Green DNA, 72 h; series mostly up to 28.7 µM
Records with an inconclusive call do not appear. The source made the active and inactive calls. The call rests on the fitted dose curve; in most records, active means well fitted inhibition curve with a large enough effect; inconclusive means small, poorly fitted or top-dose-only effect; inactive means flat fitted curve, though single readings scatter.
Hi! Could you answer with just one of these? active, inactive

COc1cc(C(=O)NCc2ccc(OCCN(C)C)cc2)cc(OC)c1OC ... inactive
CCCCC(CC)COC(=O)/C=C/c1ccc(OC)cc1 (stereo not given) ... inactive
Cc1ccccc1OCC(O)CO (stereo not given) ... inactive
O=C1C(=O)c2ccccc2C(O)=C1C1CCC(c2ccc(Cl)cc2)CC1 (stereo not given) ... active
CCCCCCCCCCCCCCCC(=O)O ... inactive
CC(C)NCC(O)c1ccc2ccccc2c1 (stereo not given) ... active
CCc1oc2ccccc2c1C(=O)c1cc(I)c(O)c(I)c1 ... inactive
CCOc1ccc(NC(C)=O)cc1 ... inactive

Would you mind telling me which call this test gave `COc1ccc(CN(CCN(C)C)c2ncccn2)cc1` ?
inactive
